target: PDE3A catalytic zone (Homo sapiens); construct: Regarding the cDNAs of the PDE3A catalytic zone; experiment: Phosphodiesterase-inhibitory activity, PDE3; settings: human-derived recombinant PDE protein, [3H]-cAMP, 30° C. for 20 minutes; read-out: IC50 (μmol/L) PDE3
Sequence (Q14432 674-1093 limits assumed): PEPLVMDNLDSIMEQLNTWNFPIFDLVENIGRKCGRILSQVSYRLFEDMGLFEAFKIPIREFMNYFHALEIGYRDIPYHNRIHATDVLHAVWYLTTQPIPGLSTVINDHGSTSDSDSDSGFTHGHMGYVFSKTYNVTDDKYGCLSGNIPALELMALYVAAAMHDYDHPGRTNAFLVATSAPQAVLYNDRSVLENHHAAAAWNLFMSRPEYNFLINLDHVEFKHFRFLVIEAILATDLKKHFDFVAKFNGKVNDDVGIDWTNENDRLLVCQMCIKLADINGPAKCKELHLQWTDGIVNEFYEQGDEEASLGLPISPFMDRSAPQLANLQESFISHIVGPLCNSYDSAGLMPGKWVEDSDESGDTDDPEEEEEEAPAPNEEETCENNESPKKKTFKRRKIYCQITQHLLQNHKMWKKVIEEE
pIC50: −log10 of the molar value.
MEASUREMENT LABEL: pIC50

Consider the following illustrative entries.
CNc1ccc(-c2ccc3cnccc3c2)c2c(Cl)c(C(F)(F)F)nn12 : ≤ 4.00
COc1ccc(-c2ccc3c[n+]([O-])ccc3c2)c2cc(C(F)(F)F)nn12 : 4.00 to 6.00
COc1ccc(-c2ccc3cnccc3c2)c2cccnc12 : 4.00 to 6.00

Would you be so kind as to report pIC50 for each listed record?
1. CNc1ccc(-c2ccc3cnccc3c2)c2cc(C(F)(F)F)nn12
2. COc1ccc(-c2ccc3cnccc3c2)n2c(Cl)c(C(F)(F)F)nc12
3. COc1ccc(-c2ccc3cnccc3c2)c2cc(C3CC3)nn12

["≤ 4.00", "≤ 4.00", "4.00 to 6.00"]

Give one value of pIC50 per listed compound.
1. COc1ccc(-c2ccc3cnccc3c2)c2c(Cl)c(C(F)(F)F)nn12
2. COc1ccc(-c2ccc3cnccc3c2)c2cc(C(F)(F)F)nn12
3. CNc1ccc(-c2ccc3cnccc3c2)n2c(Cl)c(C(F)(F)F)nc12
4. COc1ccc(-c2ccc3cncc(Cl)c3c2)c2cc(C(F)(F)F)nn12

1. ≤ 4.00
2. ≤ 4.00
3. ≤ 4.00
4. 4.00 to 6.00

Batch lookup, pIC50 per entry.
1. CCc1cc2c(-c3ccc4cnccc4c3)ccc(OC)n2n1
2. COc1ccc(-c2ccc3cncc(Cl)c3c2)c2c(Cl)c(C(F)(F)F)nn12

4.00 to 6.00
≤ 4.00

Provide the documented pIC50 with PDE3A catalytic zone (Homo sapiens) as the system for "COc1ccc(-c2ccc3cnccc3c2Cl)c2cc(C(F)(F)F)nn12"
4.00 to 6.00
